Provenance of the data: patent US9096593B2

I'd be grateful if you could share measured IC50 for these entries.
# assay_system: c-Kit kinase (Homo sapiens (Human), UniProt P10721)
# assay_info: c-Kit kinase biochemical activity assay (AlphaScreen, biotin-(E4Y)10 phosphorylation)

**Query** What value of measured IC50 is listed for Cc1ccc(CNc2ccc(Cc3c[nH]c4ncc(C)cc34)c(F)n2)nc1 ?
**Result** > 0.1 µM

**Query** Would you mind doing Fc1cc(Cc2c[nH]c3ncc(Cl)cc23)cnc1NCc1ccc(C(F)(F)F)nc1 as well?
**Result** < 0.1 µM

**Query** Entry COc1ccc(CNc2ccc(Cc3c[nH]c4ncc(C)cc34)c(F)n2)c(OC)n1 please
**Result** > 0.1 µM

**Query** Same question for Cc1cnc2[nH]cc(Cc3ccc(NCc4ccnc(C)c4)nc3F)c2c1 please.
**Result** > 0.1 µM

**Query** What do we get for Cc1cnc2[nH]cc(Cc3cnc(NCc4ccc(Cl)nc4)nc3)c2c1 ?
**Result** > 0.1 µM

**Query** Continue with COc1ncc(CNc2ccc(Cc3c[nH]c4ncc(Cl)cc34)c(F)n2)cc1F
**Result** > 0.1 µM

**Query** Moving on to Cc1cc(CNc2ccc(Cc3c[nH]c4ncc(Cl)cc34)c(F)n2)ccn1
**Result** > 0.1 µM

**Query** Please give the result for Fc1cncc(CNc2ccc(Cc3c[nH]c4ncc(Cl)cc34)c(F)n2)c1 too.
**Result** > 0.1 µM

**Query** Another: FC(F)(F)c1ccncc1CNc1ccc(Cc2c[nH]c3ncc(Cl)cc23)cn1
**Result** < 0.1 µM

**Query** Entry COc1ncc(CNc2ncc(Cc3c[nH]c4ncc(C)cc34)cn2)cc1F please
**Result** > 0.1 µM

**Query** Please give the result for Cc1cnc2[nH]cc(Cc3cnc(NCc4cccnc4OC4CCCC4)nc3)c2c1 too.
**Result** > 0.1 µM

**Query** Also COc1ccc(CNc2ncc(Cc3c[nH]c4ncc(C)cc34)cc2C)cn1 ?
**Result** < 0.1 µM

**Query** Same for COc1ccc(CNc2ncc(Cc3c[nH]c4ncc(Cl)cc34)cn2)cn1
**Result** > 0.1 µM

**Query** Try the compound COc1ccc(CNc2ncc(Cc3c[nH]c4ncc(C)cc34)cc2F)cn1
**Result** < 0.1 µM

**Query** // repeat for Cc1cnc2[nH]cc(Cc3ccc(NCc4cccnc4F)nc3F)c2c1 and report
**Result** > 0.1 µM

**Query** Also, CS(=O)(=O)Nc1cnc2[nH]cc(Cc3ccc(NCc4ccc(Cl)nc4)nc3F)c2c1 please.
**Result** > 0.1 µM

###

What IC50 was measured for each of the following?
# assay_system: BCR-KIT/BaF3 cells (Homo sapiens)
# Sequence (P10721 26-976 limits assumed, change not shown): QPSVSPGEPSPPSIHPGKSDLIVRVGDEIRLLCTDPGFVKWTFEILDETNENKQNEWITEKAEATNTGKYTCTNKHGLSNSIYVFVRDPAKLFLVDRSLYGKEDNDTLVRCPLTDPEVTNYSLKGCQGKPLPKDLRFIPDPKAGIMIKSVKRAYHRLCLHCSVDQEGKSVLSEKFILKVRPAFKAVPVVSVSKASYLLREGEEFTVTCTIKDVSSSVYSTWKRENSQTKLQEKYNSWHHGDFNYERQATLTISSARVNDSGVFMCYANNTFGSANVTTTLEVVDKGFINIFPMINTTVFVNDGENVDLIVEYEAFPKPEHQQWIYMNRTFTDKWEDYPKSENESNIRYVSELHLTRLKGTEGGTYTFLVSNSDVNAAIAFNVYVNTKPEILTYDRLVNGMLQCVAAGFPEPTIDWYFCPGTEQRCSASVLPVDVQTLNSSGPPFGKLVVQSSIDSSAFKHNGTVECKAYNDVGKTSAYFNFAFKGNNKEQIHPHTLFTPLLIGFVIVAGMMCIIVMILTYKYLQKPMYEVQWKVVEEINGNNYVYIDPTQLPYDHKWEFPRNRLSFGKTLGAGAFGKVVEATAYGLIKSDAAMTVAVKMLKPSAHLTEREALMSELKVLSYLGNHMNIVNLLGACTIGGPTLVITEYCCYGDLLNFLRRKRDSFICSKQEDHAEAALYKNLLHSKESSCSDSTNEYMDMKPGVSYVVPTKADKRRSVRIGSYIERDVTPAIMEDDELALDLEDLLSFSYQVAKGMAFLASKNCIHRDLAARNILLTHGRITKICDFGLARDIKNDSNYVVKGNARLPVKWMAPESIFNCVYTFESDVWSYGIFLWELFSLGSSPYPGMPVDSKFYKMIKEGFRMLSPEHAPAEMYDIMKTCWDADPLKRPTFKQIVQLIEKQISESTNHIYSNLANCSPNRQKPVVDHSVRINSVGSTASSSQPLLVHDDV
# assay_info: BCR-KIT/BaF3 cell proliferation assay (ATPlite)
# Format: cell-based
# condition_info: read-out: BCR/BaF3 (IC50 μM) Kit

**Query** Could you tell me which IC50 is on file for COc1ncccc1CNc1ccc(Cc2c[nH]c3ncccc23)c(F)n1 [Compound P-2045] ?
**Result** > 0.1 µM

**Query** Now try Cc1cnc2[nH]cc(Cc3ccc(NCc4cnccc4C(F)(F)F)nc3F)c2c1 [Compound P-2062] .
**Result** > 0.1 µM

**Query** Would you mind doing Cc1cccc(CNc2ncc(Cc3c[nH]c4ncc(Cl)cc34)cn2)c1 [Compound P-2013] as well?
**Result** > 0.1 µM

**Query** Then what about the compound CS(=O)(=O)Nc1cnc2[nH]cc(Cc3ccc(NCc4ccc(Cl)nc4)nc3F)c2c1 [Compound P-1679] ?
**Result** > 0.1 µM

**Query** And then Cc1cnc2[nH]cc(Cc3cnc(NCc4cccc(C)n4)nc3)c2c1 [Compound P-2079] , what is it?
**Result** > 0.1 µM

**Query** Entry to check: Fc1cncc(CNc2ccc(Cc3c[nH]c4ncc(Cl)cc34)c(F)n2)c1 [Compound P-2001]
**Result** > 0.1 µM

**Query** Follow-up entry: COc1ncc(CNc2ncc(Cc3c[nH]c4ncc(C)cc34)cn2)cc1F [Compound P-2073]
**Result** > 0.1 µM

**Query** How about COc1cnc2[nH]cc(Cc3ccc(NCc4cccnc4OC)nc3F)c2c1 [Compound P-2043] ?
**Result** > 0.1 µM

**Query** Subsequent entry: Clc1cnc2[nH]cc(Cc3ccc(NCc4ccc(Cl)nc4)nc3)c2c1 [Compound P-2003]
**Result** < 0.1 µM

**Query** And what about the compound Cc1cnc2[nH]cc(Cc3ccc(NCc4ccc(Cl)nc4)nc3F)c2c1 [Compound P-2088] ?
**Result** > 0.1 µM

**Query** Again, but for Fc1ccc(CNc2ccc(Cc3c[nH]c4ncc(Cl)cc34)cn2)cn1 [Compound P-2004]
**Result** < 0.1 µM

**Query** Field entry: COc1ccc(CNc2ncc(Cc3c[nH]c4ncc(Cl)cc34)cn2)cn1 [Compound P-2038]
**Result** > 0.1 µM

**Query** Now try Cc1cnc2[nH]cc(Cc3cnc(NCc4ccc(Cl)nc4)nc3)c2c1 [Compound P-2078] .
**Result** > 0.1 µM

**Query** Could you do the same for Fc1cc(Cc2c[nH]c3ncc(Cl)cc23)cnc1NCc1ccc(C(F)(F)F)nc1 [Compound P-2172] , please?
**Result** < 0.1 µM

**Query** # iterate: Fc1cncc(CNc2ncc(Cc3c[nH]c4ncc(Cl)cc34)cn2)c1 [Compound P-2176]
**Result** > 0.1 µM

**Query** Another: Cc1cnc2[nH]cc(Cc3cnc(NCc4cccnc4OC4CCCC4)nc3)c2c1 [Compound P-2148]
**Result** > 0.1 µM

**Query** Also, Cc1cnc2[nH]cc(Cc3ccc(NCc4ccc(C(F)(F)F)nc4)nc3F)c2c1 [Compound P-2031] please.
**Result** > 0.1 µM

**Query** Here is the next compound: COc1cnc2[nH]cc(Cc3ccc(NCc4ccc(Cl)cc4)nc3F)c2c1 [Compound P-2032]
**Result** < 0.1 µM

**Query** And then COc1ccc(CNc2ncc(Cc3c[nH]c4ncc(C)cc34)cn2)cn1 [Compound P-2057] , what is it?
**Result** > 0.1 µM

**Query** Do the same for COc1cnc2[nH]cc(Cc3ccc(NCc4cncc(F)c4)nc3F)c2c1 [Compound P-2028] please
**Result** > 0.1 µM

**Query** How about this compound: FC(F)(F)c1ccncc1CNc1ccc(Cc2c[nH]c3ncc(Cl)cc23)cn1 [Compound P-2063]
**Result** > 0.1 µM

**Query** Next compound up: Cc1ccc(CNc2ccc(Cc3c[nH]c4ncc(C)cc34)c(F)n2)nc1 [Compound P-2131]
**Result** > 0.1 µM

**Query** What do you get for Cc1cnc2[nH]cc(Cc3ccc(NCc4ccc(C(F)(F)F)nc4)nc3)c2c1 [Compound P-2019] ?
**Result** < 0.1 µM

**Query** // query: COc1ccnc2[nH]cc(Cc3ccc(NCc4ccc(Cl)cc4)nc3F)c12 [Compound P-2037]
**Result** > 0.1 µM

**Query** Input Cn1cc(F)cc(CNc2ncc(Cc3c[nH]c4ncc(Cl)cc34)cn2)c1=O [Compound P-2157]
**Result** > 0.1 µM

**Query** Queued: COc1cccc(CNc2ncc(Cc3c[nH]c4ncc(Cl)cc34)s2)n1 [Compound P-2163]
**Result** > 0.1 µM

**Query** Similarly, COc1ncc(F)cc1CNc1ccc(Cc2c[nH]c3ncc(NC(C)=O)cc23)c(F)n1 [Compound P-1669] ?
**Result** > 0.1 µM

**Query** Then what about the compound CCS(=O)(=O)Nc1ccccc1CNc1ccc(Cc2c[nH]c3ncc(C)cc23)c(F)n1 [Compound P-2198] ?
**Result** > 0.1 µM

**Query** Please give the result for COc1ccc(CNc2ncc(Cc3c[nH]c4ncc(C)cc34)cc2C)cn1 [Compound P-1554] too.
**Result** > 0.1 µM

**Query** # repeat for COc1ncc(CNc2ccc(Cc3c[nH]c4ncc(Cl)cc34)c(F)n2)cc1F [Compound P-2165]
**Result** > 0.1 µM

**Query** Same question, Cc1cnc2[nH]cc(Cc3cnc(NCc4cccc(N5CCOCC5)n4)nc3)c2c1 [Compound P-2081] this time
**Result** > 0.1 µM

**Query** Please give the result for Cc1cnc2[nH]cc(Cc3ccc(NCc4cnccc4C(F)(F)F)nc3)c2c1 [Compound P-2070] too.
**Result** > 0.1 µM

**Query** Now consider COc1cnc2[nH]cc(Cc3cnc(NCc4ccc(C(F)(F)F)nc4)c(F)c3)c2c1 [Compound P-2147] .
**Result** < 0.1 µM

**Query** What about this compound? Cc1cnc2[nH]cc(Cc3ccc(NCc4ccnc(F)c4)nc3F)c2c1 [Compound P-2118]
**Result** > 0.1 µM
